So I've got Ki readings for human CB1 receptor (Homo sapiens), take a look.

compound	experimental_system	Ki
CC(C)[C@H](NC(=O)n1c(=O)n(CC2CCCCC2)c2ccccc21)C(N)=O [Example 203]	human CB1 receptor (Homo sapiens)	8.23 nM
CC(C)(C)[C@@H](CO)NC(=O)n1c(=O)n(CC2CCCCC2)c2cc(Br)ccc21 [Example 308]	human CB1 receptor (Homo sapiens)	5.38 nM
O=C(N[C@H]1CCCc2ccccc21)n1c(=O)n(CC2CCC2)c2ccccc21 [Example 198]	human CB1 receptor (Homo sapiens)	5.79 nM
CC(C)(C)[C@H](NC(=O)n1c(=O)n(CC2CCOCC2)c2ccccc21)C(=O)NCCO [Example 317]	human CB1 receptor (Homo sapiens)	12 nM
CNC(=O)[C@@H](NC(=O)n1c(=O)n(CC2CCOCC2)c2ccccc21)C(C)(C)C [Example 303]	human CB1 receptor (Homo sapiens)	5.71 nM
CC(C)(C)[C@@H](CO)NC(=O)n1c(=O)n(CC2CCOCC2)c2cc(F)ccc21 [Example 301]	human CB1 receptor (Homo sapiens)	5.25 nM
CC(C)(C)[C@H](NC(=O)n1c(=O)n(CC2CCOCC2)c2ccccc21)C(=O)NC[C@H](O)CO [Example 345]	human CB1 receptor (Homo sapiens)	52.8 nM
CC(C)(C)[C@H](NC(=O)n1c(=O)n(Cc2ccc(F)cc2)c2ccccc21)C(N)=O [Example 363]	human CB1 receptor (Homo sapiens)	0.36 nM
CC(C)(C)[C@H](NC(=O)n1c(=O)n(Cc2ccccc2)c2ccccc21)c1nnc(N)o1 [Example 359]	human CB1 receptor (Homo sapiens)	3.06 nM
O=C(N[C@H]1c2ccccc2C[C@H]1O)n1c(=O)n(CC2CCC2)c2ccccc21 [Example 189]	human CB1 receptor (Homo sapiens)	88.4 nM

====

# experimental_system: human CB1 receptor (Homo sapiens, UniProt P21554)
# Sequence (P21554 whole entry): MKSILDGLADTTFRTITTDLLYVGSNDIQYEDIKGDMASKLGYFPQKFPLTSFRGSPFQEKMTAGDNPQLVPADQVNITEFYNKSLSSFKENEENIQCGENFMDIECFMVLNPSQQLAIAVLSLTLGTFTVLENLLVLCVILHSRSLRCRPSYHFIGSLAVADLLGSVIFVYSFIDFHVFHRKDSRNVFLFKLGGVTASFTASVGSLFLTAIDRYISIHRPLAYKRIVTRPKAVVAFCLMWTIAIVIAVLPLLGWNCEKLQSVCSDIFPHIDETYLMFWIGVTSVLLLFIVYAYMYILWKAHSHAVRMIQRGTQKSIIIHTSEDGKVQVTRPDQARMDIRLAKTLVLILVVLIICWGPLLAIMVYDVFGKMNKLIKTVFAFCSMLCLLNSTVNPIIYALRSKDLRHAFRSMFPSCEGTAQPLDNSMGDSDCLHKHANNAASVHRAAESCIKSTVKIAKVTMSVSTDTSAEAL
pKi: −log10 of the molar value.
We use 8 as the dividing line for pKi: on or above the line is rule met, below is rule not met.

entry_smiles	category_label
CC(C)(C)[C@H](NC(=O)n1c(=O)n(CC2CCOCC2)c2ccccc21)C(=O)NC1CC1	rule met
CCc1nc(CNC(=O)n2c(=O)n(CC3CCOCC3)c3ccccc32)no1	rule not met
O=C(N[C@H]1CCCc2ccccc21)n1c(=O)n(CC2CCOCC2)c2ccccc21	rule met
CC(C)(C)[C@H](NC(=O)n1c(=O)n(CC2CCCCC2)c2ncccc21)C(N)=O	rule met
CC(C)(C)[C@H](NC(=O)n1c(=O)n(Cc2cccc(F)c2)c2ccccc21)C(N)=O	rule met
CC(C)(C)[C@H](NC(=O)n1c(=O)n(Cc2ccccc2)c2ccccc21)C(=O)NCCO	rule not met

====

# experimental_system: human CB1 receptor (Homo sapiens, UniProt P21554)
# protocol_notes: GTPγS binding on membranes of CHO cells expressing the human CB1 receptor
# experimental_parameters: CHO cell membranes, [35S] GTPγS
Measured EC50 of individual entries

entry_smiles	sign	EC50, µM
CCc1nc(CNC(=O)n2c(=O)n(CC3CCOCC3)c3ccccc32)no1	>	10
CC(C)(C)[C@H](NC(=O)n1c(=O)n(CC2CCC2)c2ccccc21)C(N)=O	=	0.0453
CC(C)(C)[C@H](NC(=O)n1c(=O)n(CC2CCOCC2)c2ccccc21)C(=O)NC[C@H](O)CO	=	1.15
Cc1cccc2c1n(CC1CCCCC1)c(=O)n2C(=O)N[C@H](C(N)=O)C(C)(C)C	=	0.0083
CC(C)(C)[C@H](NC(=O)n1c(=O)n(CCCCC#N)c2ccccc21)C(N)=O	=	1.86
